Assay: Single dose pharmacokinetics in male Swiss albino mice
Format: in vivo
Details: mouse, in vivo, iv, 5 mg/kg
METRIC NAME: Cmax (ng/mL)
Numbers only, in ng/mL.

Worked cases, Cmax given:
{"columns": ["MOLECULE", "READOUT UNITS", "Cmax"],
 "data": [
  ["Cc1ccc(CNC2CCN(CCn3c(=O)cnc4ccc(F)cc43)CC2)cc1[N+](=O)[O-] [VT-03-00113]", "ng/mL", 672],
  ["COc1ccc2ncc(=S)n(CCN3CCC(NCc4ccc(C)c([N+](=O)[O-])c4)CC3)c2c1 [VT-03-00127]", "ng/mL", 478],
  ["Cc1ccc(CNC2CCN(CCn3c(=O)cnc4ccc(F)cc43)CC2)cc1F [VT-03-00122]", "ng/mL", 381]
]}

Dear colleague, please send me the reported Cmax for Cc1ccc(CNC2CCN(CCn3c(=O)cnc4ccc(Cl)nc43)CC2)cc1[N+](=O)[O-] [VT-03-00118] when you can.
913
